Entries and their melting point
Where a name gives a salt, the structure may show the parent alone.

CCOC(=O)Cc1nc(-c2cccc(C)c2)oc1-c1cccs1 [Preparation Example 427]	80 to 81 °C
CCc1[nH]c(-c2ccc(C)nc2)nc1-c1cccnc1.Cl.Cl.Cl	270 to 273 °C (dec.)
CCCc1nc(-c2ccc(F)cc2)[nH]c1-c1cc(Cl)ccc1O (as salt: HCl) [Preparation example 92]	262 to 264 °C
Cc1nc(-c2csc(Cl)c2)[nH]c1-c1cccnc1 (as salt: HCl) [Preparation example 54]	198 to 201 °C
CCc1nc(-c2ccc(C)nc2)[nH]c1-c1cncs1 (as salt: HCl) [Preparation example 83]	247 to 251 °C

Now examine the next entry.
Query: Recorded melting point of OCc1nc(-c2ccc(F)cc2)[nH]c1-c1ccccc1 [Preparation example 117] , please.
Result: 240 to 243 °C

====

Test system: isolated rabbit urinary bladder
MEASUREMENT_DESCRIPTION: Relaxation effect on potassium-induced contraction of isolated rabbit urinary bladder
Type: cell-based
REPORTED_CONDITIONS: Oryctolagus cuniculus; 50% relaxation concentration; high-K+ (30 mM) pre-contracted rabbit bladder strips; relaxation as percentage of the maximum produced by 0.1 mM papaverine; read-out: EC50 value range
pEC50: −log10 of the molar value.
READOUT_TYPE: pEC50

O=C(O)Cc1nc(-c2cc3ccccc3o2)oc1-c1ccc(Cl)s1 [Preparation Example 435]	6.00 to 6.30
CN(C)c1ncc(-c2nc(-c3ccc(Cl)s3)c(CC(=O)O)o2)cn1 [Preparation Example 512]	6.00 to 6.30

Query: I am curious: what pEC50 value has been reported for O=C(O)Cc1oc(-c2cc3ccccc3s2)nc1-c1ccc(Cl)s1 [Preparation Example 503] ?
Result: 5.52 to 6.00

Query: Which pEC50 value belongs to CN(C)c1ccc(-c2nc(-c3ccc(Cl)cc3)c(CC(=O)O)s2)cn1 [Preparation Example 576] ?
Result: 6.00 to 6.30

Query: Need pEC50 of O=C(O)Cc1oc(-c2ccc(F)cc2)nc1-c1ccc(Cl)cc1 [Preparation Example 511] , thanks.
Result: ≥ 6.30

Query: Which pEC50 reading was recorded for the compound CN(C)c1ccc(-c2nc(-c3cccs3)c(CC(=O)O)o2)cn1 [Preparation Example 506] ?
Result: 6.00 to 6.30

Query: Entry Cc1cc(-c2oc(-c3ccc(F)cc3)nc2CC(=O)O)sc1Cl [Preparation Example 257] : reported pEC50 = ?
Result: ≥ 6.30

Query: Which pEC50 is listed for Cc1cc(-c2nc(CC(=O)O)c(-c3ccc(Cl)s3)o2)on1 [Preparation Example 278] ?
Result: 6.00 to 6.30

====

melting point values for the compounds below.
Structures can show the parent of a compound that is named as a salt.

NC(=O)Cc1nc(-c2ccc(F)cc2)[nH]c1-c1ccsc1 [Preparation example 44]	200 to 202 °C (dec.)
CCOC(=O)Cc1nc(-c2ccc(Cl)cc2)oc1-c1ccco1 [Preparation Example 191]	109 to 111 °C
CSCc1nc(-c2cccc(F)c2)[nH]c1-c1ccccc1 (as salt: HCl) [Preparation example 131]	218 to 220 °C
CCc1nc(-c2ccc(C#N)cc2)[nH]c1-c1ccccc1 (as salt: HCl) [Preparation example 27]	285 to 288 °C
O=C(O)Cc1nc(-c2ccc(F)cc2)oc1-c1ccsc1 [Preparation Example 618]	207 to 209 °C

Note: attention shifts to another entry.
Query: Item CCCc1nc(-c2ccc3ccccc3c2)[nH]c1-c1ccccc1 (as salt: HCl) [Preparation example 32] has what recorded melting point?
Result: 189 to 190 °C

====

Tested on: isolated rabbit urinary bladder
MEASUREMENT_DESCRIPTION: Relaxation effect on potassium-induced contraction of isolated rabbit urinary bladder
Type: cell-based
REPORTED_CONDITIONS: Oryctolagus cuniculus; 50% relaxation concentration; high-K+ (30 mM) pre-contracted rabbit bladder strips; relaxation as percentage of the maximum produced by 0.1 mM papaverine; read-out: EC50 value range
READOUT_TYPE: EC50

Known EC50 results, listed for orientation:
CCCc1nc(-c2ccc(F)cc2)[nH]c1-c1ccccc1	1 to 3 µM
O=C(O)Cc1nc(-c2cc3ccccc3s2)oc1-c1cccs1	≤ 0.5 µM

Query: # query: EC50 of entry `CCc1nc(-c2ccc(Cl)s2)[nH]c1-c1cccnc1`
Result: 1 to 3 µM

Query: Which EC50 reading was recorded for the compound `CCCc1nc(-c2csc(Cl)c2)[nH]c1-c1ccccc1` ?
Result: 1 to 3 µM

Query: # query: EC50 of entry `CS(=O)(=O)Cc1nc(-c2ccc(F)cc2)oc1-c1ccsc1`
Result: 1 to 3 µM

Query: I have this compound here, `CCCc1nc(-c2ccc(F)cc2)[nH]c1-c1cccc(OC)c1` , and I need its recorded EC50.
Result: 1 to 3 µM

====

Where a name gives a salt, the structure may show the parent alone.
READOUT_TYPE: melting point

Before answering, review these 5 worked examples.
CCOC(=O)Cc1nc(-c2ccc(F)cc2)oc1I	120 to 122 °C
O=CCNc1[nH]c(-c2ccc(F)cc2)nc1-c1ccccc1	256 to 258 °C
CCOC(=O)Cc1nc(-c2ccc(F)cc2)oc1-c1cc(C)cs1	138 to 139 °C
CSCc1nc(-c2ccc(F)cc2)[nH]c1-c1cccnc1	172 to 174 °C
O=CCCNc1[nH]c(-c2ccc(F)cc2)nc1-c1ccccc1	201 to 202 °C

Query: What melting point value was documented for this compound, CCc1nc(-c2ccc(F)cc2)[nH]c1-c1ccc(C)nc1 (as salt: HCl) ?
Result: 260 to 262 °C

Query: // query melting point value for entry `CCOC(=O)Cc1nc(-c2ccc3ccccc3n2)oc1-c1ccsc1`
Result: 168.5 to 169.5 °C

Query: Given CCCc1nc(-c2ccc(F)cc2)[nH]c1Br (as salt: HCl) , state its recorded melting point.
Result: 178 to 180 °C

Query: If you can, please state the reported melting point value of CCCc1nc(-c2cncc(C)c2)[nH]c1-c1cccs1 (as salt: HCl) .
Result: 183 to 185 °C

Query: Requested read-out: melting point. Entry: CCCc1nc(-c2csc(Cl)c2)[nH]c1-c1ccccc1 (as salt: HCl)
Result: 194 to 196 °C

Query: Consider the compound `OCc1nc(-c2cccc(F)c2)[nH]c1-c1ccccc1` and give its measured melting point.
Result: 232 to 234 °C

Query: So what's the measured melting point for this one? Fc1cccc(-c2ncc(-c3ccccc3)[nH]2)c1 (as salt: HCl)
Result: 250 to 255 °C

Query: What measured melting point goes with CCc1nc(-c2ccccc2C(N)=O)[nH]c1-c1cccnc1 (as salt: HCl) ?
Result: 250 to 253 °C

Query: What value of melting point has been reported for the following compound? CCCc1nc(-c2ccc(F)cc2)[nH]c1-c1ccc([N+](=O)[O-])cc1 (as salt: HCl)
Result: 220 to 222 °C

Query: For the compound shown here, `CCOC(=O)Cc1nc(-c2ccc(C)cc2)oc1-c1cccs1` , give the reported melting point.
Result: 125 to 127 °C

====

System: rhythmic bladder contractions induced by substance P
MEASUREMENT_DESCRIPTION: Inhibitory effect on the rhythmic bladder contractions induced by substance P in anesthetized rats
Format: in vivo, rat
REPORTED_CONDITIONS: time during which frequency of rhythmic contraction was completely inhibited, 0.25 mg/kg of the compound, substance P infusion
READOUT_TYPE: 100% inhibition time range

Here are 5 compounds together with their reported answers.
Cc1csc(-c2oc(-c3ccc(F)cc3)nc2CC(=O)O)c1 [Preparation Example 164]	B (A≧20>B≧10>C (minute))
CCCc1nc(-c2ccc(F)cc2)[nH]c1-c1ccc(F)cc1 [Preparation example 87]	B (A≧20>B≧10>C (minute))
O=C(O)Cc1nc(-c2ccc(F)cc2)oc1-c1ccc(Cl)cc1 [Preparation Example 243]	A (A≧20>B≧10>C (minute))
C[S+]([O-])Cc1nc(-c2ccc(C#N)cc2)[nH]c1-c1ccccc1 (stereo not drawn) [Preparation example 137]	C (A≧20>B≧10>C (minute))
Cc1ccc2sc(-c3nc(CC(=O)O)c(-c4ccc(Cl)s4)o3)cc2c1 [Preparation Example 450]	B (A≧20>B≧10>C (minute))

Query: // 100% inhibition time range lookup, key: CCc1[nH]c(-c2sccc2CO)nc1-c1cccnc1.Cl.Cl [Preparation example 67]
Result: B (A≧20>B≧10>C (minute))

Query: Reported 100% inhibition time range, compound O=C(O)Cc1sc(-c2ccc(F)cc2)nc1-c1cccs1 [Preparation Example 577] : ____
Result: B (A≧20>B≧10>C (minute))

Query: State the recorded 100% inhibition time range for this entry: O=C(O)Cc1nc(-c2ccc3ccccc3n2)oc1-c1ccsc1 [Preparation Example 439]
Result: C (A≧20>B≧10>C (minute))

Where these numbers come from: patent US7759373B2
